These measurements were taken from ChEMBL document CHEMBL1667755.

- assayName: Cytotoxicity against human MT4 cells by MTT assay
- Format: cell-based
Note to self: use y only for CC50 readings below 100 µM; a reading exactly at 100 µM still gets n.

1) CC(C)C1C(=O)N(O)C(=O)c2ccccc21 (configuration not stated)	n
2) O=C1c2ccccc2C(Cc2ccc(C(F)(F)F)cc2)C(=O)N1O (configuration not stated)	y
3) O=c1c2ccccc2c(Cc2ccccc2)c(O)n1O	y
4) CCC1C(=O)N(O)C(=O)c2ccccc21 (configuration not stated)	n
5) O=C1c2ccccc2C(CCCc2ccccc2)C(=O)N1O (configuration not stated)	y
6) CCCC1C(=O)N(O)C(=O)c2ccccc21 (configuration not stated)	y
7) CC1C(=O)N(O)C(=O)c2ccccc21 (configuration not stated)	n

* * *

- assayName: Cytotoxicity against human MT4 cells by MTT assay
- Type: cell-based
observedProperty: log10 of CC50 (log10 of the value in µM)

1) CCCCCCc1c(O)n(O)c(=O)c2ccccc12	2.11
2) CCCCCCC1C(=O)N(O)C(=O)c2ccccc21 (configuration not stated)	0.64
3) O=C1c2ccccc2C(Cc2ccccc2)C(=O)N1O (configuration not stated)	1.98
4) CCCCC1C(=O)N(O)C(=O)c2ccccc21 (configuration not stated)	1.40
5) O=C1c2ccccc2C(CCc2ccccc2)C(=O)N1O (configuration not stated)	1.48
6) Cc1ccc(CC2C(=O)N(O)C(=O)c3ccccc32)cc1 (configuration not stated)	0.74
7) CCCCCC1C(=O)N(O)C(=O)c2ccccc21 (configuration not stated)	1.99

* * *

- subjectOfTest: Human immunodeficiency virus type 1 reverse transcriptase (Human immunodeficiency virus 1)
- assayName: Inhibition of recombinant HIV-1 reverse transcriptase RNase H domain after 10 mins
- testSettings: read-out: IC50
pIC50: −log10 of the molar value.
observedProperty: pIC50

1) CCCC1C(=O)N(O)C(=O)c2ccccc21 (configuration not stated)	4.33
2) CCCCCCC1C(=O)N(O)C(=O)c2ccccc21 (configuration not stated)	4.42
3) O=C1c2ccccc2C(CCCc2ccccc2)C(=O)N1O (configuration not stated)	4.18
4) CC(C)C1C(=O)N(O)C(=O)c2ccccc21 (configuration not stated)	4.73
5) O=c1c2ccccc2c(Cc2ccccc2)c(O)n1O	4.83
6) CC1C(=O)N(O)C(=O)c2ccccc21 (configuration not stated)	4.41
7) O=C1c2ccccc2C(Cc2ccc(C(F)(F)F)cc2)C(=O)N1O (configuration not stated)	4.37

* * *

- subjectOfTest: Human immunodeficiency virus type 1 reverse transcriptase (Human immunodeficiency virus 1)
- assayName: Inhibition of recombinant HIV-1 reverse transcriptase RNase H domain after 10 mins
- testSettings: read-out: IC50
observedProperty: IC50 (µM)

1. CCCCCCc1c(O)n(O)c(=O)c2ccccc12	7.8
2. CCCCCCCc1c(O)n(O)c(=O)c2ccccc12	45
3. CCCCC1C(=O)N(O)C(=O)c2ccccc21 (stereo unspecified)	13.2
4. CCCCCC1C(=O)N(O)C(=O)c2ccccc21 (stereo unspecified)	33.6
5. CCC1C(=O)N(O)C(=O)c2ccccc21 (stereo unspecified)	70
6. Cc1ccc(CC2C(=O)N(O)C(=O)c3ccccc32)cc1 (stereo unspecified)	80

* * *

- subjectOfTest: Human immunodeficiency virus type 1 integrase (Human immunodeficiency virus 1, UniProt Q7ZJM1)
- Sequence (Q7ZJM1 whole entry): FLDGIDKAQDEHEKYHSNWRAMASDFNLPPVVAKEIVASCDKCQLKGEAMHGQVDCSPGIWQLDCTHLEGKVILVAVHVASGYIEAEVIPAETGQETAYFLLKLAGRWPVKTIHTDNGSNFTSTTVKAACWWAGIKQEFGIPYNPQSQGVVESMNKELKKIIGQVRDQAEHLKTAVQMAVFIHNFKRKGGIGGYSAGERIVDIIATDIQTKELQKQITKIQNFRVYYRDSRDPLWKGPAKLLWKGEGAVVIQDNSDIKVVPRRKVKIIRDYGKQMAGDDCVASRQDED
pIC50: −log10 of the molar value.
Output fulfilled for pIC50 not less than 5; output not fulfilled otherwise.

1) O=c1c2ccccc2c(Cc2ccccc2)c(O)n1O	not fulfilled
2) CCCCC1C(=O)N(O)C(=O)c2ccccc21 (stereo not given)	not fulfilled
3) CC1C(=O)N(O)C(=O)c2ccccc21 (stereo not given)	fulfilled
4) CC(C)C1C(=O)N(O)C(=O)c2ccccc21 (stereo not given)	not fulfilled
5) CCC1C(=O)N(O)C(=O)c2ccccc21 (stereo not given)	not fulfilled
6) O=C1c2ccccc2C(Cc2ccc(C(F)(F)F)cc2)C(=O)N1O (stereo not given)	not fulfilled
7) CCCC1C(=O)N(O)C(=O)c2ccccc21 (stereo not given)	not fulfilled
8) CCCCCC1C(=O)N(O)C(=O)c2ccccc21 (stereo not given)	fulfilled
9) O=C1c2ccccc2C(Cc2ccccc2)C(=O)N1O (stereo not given)	not fulfilled
10) CCCCCCc1c(O)n(O)c(=O)c2ccccc12	not fulfilled
11) O=C1c2ccccc2C(CCc2ccccc2)C(=O)N1O (stereo not given)	not fulfilled
12) Cc1ccc(CC2C(=O)N(O)C(=O)c3ccccc32)cc1 (stereo not given)	fulfilled
13) O=C1c2ccccc2C(CCCc2ccccc2)C(=O)N1O (stereo not given)	fulfilled
14) CCCCCCCc1c(O)n(O)c(=O)c2ccccc12	not fulfilled
